Molecular target: N-terminally FLAG-tagged PARP2 (amino acids 1-583) (Homo sapiens, UniProt Q9UGN5)
Construct: N-terminally FLAG-tagged PARP2 (amino acids 1-583)
Sequence (Q9UGN5 whole entry, the tested form may be a part): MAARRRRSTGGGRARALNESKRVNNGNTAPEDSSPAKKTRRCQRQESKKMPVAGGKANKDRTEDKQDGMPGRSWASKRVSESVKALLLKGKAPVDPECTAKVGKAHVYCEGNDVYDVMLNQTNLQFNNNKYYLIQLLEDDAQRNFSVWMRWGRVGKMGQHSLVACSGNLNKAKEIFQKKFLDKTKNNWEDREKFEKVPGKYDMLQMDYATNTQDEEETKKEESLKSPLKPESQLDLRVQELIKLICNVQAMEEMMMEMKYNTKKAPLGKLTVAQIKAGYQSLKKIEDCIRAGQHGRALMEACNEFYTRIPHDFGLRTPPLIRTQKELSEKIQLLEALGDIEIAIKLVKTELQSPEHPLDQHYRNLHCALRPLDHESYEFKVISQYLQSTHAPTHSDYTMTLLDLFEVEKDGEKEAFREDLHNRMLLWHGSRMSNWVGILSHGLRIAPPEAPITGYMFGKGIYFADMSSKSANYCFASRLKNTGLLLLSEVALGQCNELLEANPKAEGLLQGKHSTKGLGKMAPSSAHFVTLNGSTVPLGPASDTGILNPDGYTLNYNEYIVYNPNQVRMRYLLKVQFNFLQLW
Test: PARP2 probe displacement HTRF assay
Type: binding
Settings: binned Kd, probe displacement HTRF
List of Kd values.

Worked cases, Kd given:
CCc1ccc(C2CCN(C3CCN(c4ccc(C#N)cc4)CC3)C2)[nH]c1=O (single isomer, unassigned) [Compound 317a]    1 to 10 µM
CNC(=O)c1ccc(N2CCC(N3CCC(c4cc5[nH]nc(C(F)(F)F)c5c(=O)[nH]4)C3)CC2)c(F)n1 (single isomer, unassigned) [Compound 280b]    0.01 to 0.1 µM
CS(=O)(=O)Nc1ccc(N2CCC(N3CCC(c4nc5ccccc5c(=O)[nH]4)C3)CC2)cc1 (single isomer, unassigned) [Compound 250b]    0.1 to 1 µM
CCCc1ccc(C2CCN(C3CCN(c4ccc(C(=O)NC)nc4)CC3)C2)[nH]c1=O (single isomer, unassigned) [Compound 261a]    > 10 µM
CNC(=O)c1cc(F)c(N2CCC(N3CCC(c4cc5ccc(F)cc5c(=O)[nH]4)C3)CC2)cn1 (racemic)    0.01 to 0.1 µM

# query: Kd | item O=C(NC1CC1)c1ccc(N2CCC(N3CCC(c4cc5ncc(F)cc5c(=O)[nH]4)C3)CC2)cn1 (single isomer, unassigned) [Compound 372a] | system: N-terminally FLAG-tagged PARP2 (amino acids 1-583) (Homo sapiens, UniProt Q9UGN5)
0.1 to 1 µM
